Values from patent US20230398130A1

# Test system: ISC-enriched organoids
# Assay summary: Primary screen, 384-well 2.5-D organoid differentiation (ENR+CD, 6 days, Target Selective Inhibitor Library, vs whole-plate median): ATP (CellTiter-Glo 3D, CTG)
# Run conditions: Dose 0.08 uM; primary screen, standard z score
Where Z.CTG equals or exceeds 0.3, the correct label is met; where it does not, the label is not met.

Please indicate if the recorded Z.CTG for O=C(Nc1ccccc1)N1CCN(c2nc(-c3ccccc3)ns2)CC1 meets or exceeds 0.3.
not met

----------
# Test system: ISC-enriched organoids
# Assay summary: Primary screen, 384-well 2.5-D organoid differentiation (ENR+CD, 6 days, Target Selective Inhibitor Library, vs whole-plate median): ATP (CellTiter-Glo 3D, CTG)
# Run conditions: dose 0.08 uM
Structures can show the parent of a compound that is named as a salt.
Answer not met if Z.CTG (standard z score) is under 0.09, and met if it is 0.09 or more.

| Compound | System name | Label class |
| --- | --- | --- |
| COc1cc2/c(=N/c3ccc(Br)cc3F)nc[nH]c2cc1OCC1CCN(C)CC1 [Vandetanib (ZD6474)] | ISC-enriched organoids | not met |
| CCCCNc1ncc(-c2ccc(CN3CCOCC3)cn2)c(NC2CCC(O)CC2)n1 (centres unmarked) [UNC2250] | ISC-enriched organoids | met |
| Clc1ccccc1CN1CCc2sccc2C1 [Ticlopidine HCl] | ISC-enriched organoids | not met |
| O=c1ncccn1[C@@H]1O[C@H](CO)[C@@H](O)[C@H]1O [Zebularine] | ISC-enriched organoids | not met |

Reported Z.CTG (standard z score) at or above 0.09? COc1cc2ncnc(Nc3ccc(Cl)cc3F)c2cc1OC [ZM 306416]
not met

Does Oc1nc(-c2ccc(C(F)(F)F)cc2)nc2c1CSCC2 [XAV-939] have a reported Z.CTG (standard z score) of at least 0.09?
not met

Is Z.CTG (standard z score) at least 0.09? Consider Nc1nc(N)c2nc(-c3cccc(O)c3)c(-c3cccc(O)c3)nc2n1 [TG100-115]
not met

Hello, I need to know if CN(C)CCCCC(=O)Nc1ccc(NC(=S)NC(=O)c2ccc(C(C)(C)C)cc2)cc1 [Tenovin-6] has measured Z.CTG (standard z score) not below 0.09. Thanks!
met

// inclusive: Z.CTG (standard z score) at least 0.09? input: Cc1cc(C)nc(NS(=O)(=O)c2ccc(NC(=S)NC(=O)COc3ccc(Br)cc3Cl)cc2)n1 [ZCL278]
not met

Given the entry O=C(NCc1ccccc1)c1csc(Nc2ccncn2)n1 [Thiazovivin] , answer whether its Z.CTG (standard z score) meets or surpasses 0.09.
met

// inclusive: Z.CTG (standard z score) at least 0.09? input: COc1nc(C)cnc1NS(=O)(=O)c1cccnc1-c1ccc(-c2nnco2)cc1 [Zibotentan (ZD4054)]
met

----------
# Test system: ISC-enriched organoids
# Assay summary: Primary screen, 384-well 2.5-D organoid differentiation (ENR+CD, 6 days, Target Selective Inhibitor Library, vs whole-plate median): ATP (CellTiter-Glo 3D, CTG)
# Run conditions: primary screen, dose 0.40 uM, standard z score of FC
Each item that follows carries a reported Z.CTG.
Lab note: jot the number down without any unit.

Field: example entries. Status: answers known.
| Molecule | Measured |
| --- | --- |
| CCNC(=O)c1noc(-c2cc(C(C)C)c(O)cc2O)c1-c1ccc(CN2CCOCC2)cc1 [AUY922 (NVP-AUY922)] | −3.208 |
| O=C1C(=O)N(Cc2ccc(Cl)c(Cl)c2)c2ccccc21 [Apoptosis Activator 2] | 0.626 |
| CC1(C)CCC(c2ccc(Cl)cc2)=C(CN2CCN(c3ccc(C(=O)NS(=O)(=O)c4ccc(N[C@H](CCN5CCOCC5)CSc5ccccc5)c(S(=O)(=O)C(F)(F)F)c4)cc3)CC2)C1 [ABT-263 (Navitoclax)] | −0.631 |

The molecule listed as CC[C@H](NC(=O)[C@H](C)NC)C(=O)N1C[C@@H](O)C[C@H]1Cc1c(-c2[nH]c3cc(F)ccc3c2C[C@@H]2C[C@H](O)CN2C(=O)[C@H](CC)NC(=O)[C@H](C)NC)[nH]c2cc(F)ccc12 [Birinapant] has a reported Z.CTG of 0.226

Lookup result for COc1cc(OC2CCN(C)CC2)ccc1Nc1ncc2c(n1)n(C1CCCC1)c(=O)n2C [AZ 3146] ; measured Z.CTG: −0.626

Form: molecule = Cc1cc([C@@H](C)Nc2ccccc2C(=O)O)c2nc(N3CCOCC3)cc(=O)n2c1 [AZD6482] ; Z.CTG = 0.533

So, C[C@H]1COC2(CCN(c3nc(=O)c4cc(C(F)(F)F)cc([N+](=O)[O-])c4s3)CC2)O1 (racemic) [BTZ043 Racemate] ? Its Z.CTG was 1.303

# molecule N#CC1(c2ccc(NC(=O)c3cccnc3NCc3ccncc3)cc2)CCCC1 [Apatinib] ; its Z.CTG = 0.722

----------
# System: ISC-enriched organoids
# Assay summary: Primary screen, 384-well 2.5-D organoid differentiation (ENR+CD, 6 days, Target Selective Inhibitor Library, vs whole-plate median): ATP (CellTiter-Glo 3D, CTG)
# Run conditions: dose 10.00 uM
# Z.CTG (standard z score) per record follows
Reply with the value as a number alone.

| Molecule | Z.CTG (standard z score) |
| --- | --- |
| CCO[C@@H]1OC(=O)C[C@@H]1NC(=O)[C@@H]1CCCN1C(=O)[C@@H](NC(=O)c1ccc(N)c(Cl)c1)C(C)(C)C [VX-765] | 0.608 |

Now let's try a different one.
Query CO[C@H]1C[C@@H]2CC[C@@H](C)[C@@](O)(O2)C(=O)C(=O)N2CCCC[C@H]2C(=O)O[C@H]([C@H](C)C[C@@H]2CC[C@@H](OC(=O)C(C)(CO)CO)[C@H](OC)C2)CC(=O)[C@H](C)/C=C(\C)[C@@H](O)[C@@H](OC)C(=O)[C@H](C)C[C@H](C)/C=C/C=C/C=C/1C [Temsirolimus (CCI-779, NSC 683864)] yields Z.CTG (standard z score) of 0.478

----------
# Test system: ISC-enriched organoids
# Assay summary: Primary screen, 384-well 2.5-D organoid differentiation (ENR+CD, 6 days): basal lysozyme secretion (LYZ.NS)
# Type: cell-based, murine
# Run conditions: dose 10.00 uM; vs plate median
Mark y for Dose.FC.LYZ.NS (log 2 fold change, basal lysozyme secretion) under -0.08, n if at or over.

| Compound | Label class |
| --- | --- |
| CO[C@H]1C[C@@H]2CC[C@@H](C)[C@@](O)(O2)C(=O)C(=O)N2CCCC[C@H]2C(=O)O[C@H]([C@H](C)C[C@@H]2CC[C@@H](OC(=O)C(C)(CO)CO)[C@H](OC)C2)CC(=O)[C@H](C)/C=C(\C)[C@@H](O)[C@@H](OC)C(=O)[C@H](C)C[C@H](C)/C=C/C=C/C=C/1C | n |
| CCCCNc1ncc(-c2ccc(CN3CCOCC3)cn2)c(NC2CCC(O)CC2)n1 (stereo not drawn) | y |
| Cc1cc(-c2ccc(CC(=O)Nc3ccc(-c4cccnc4)cc3)cc2)ccn1 | y |
| O=C(NCc1ccccc1)c1csc(Nc2ccncn2)n1 | n |

Continue with the compound presented below.
For this compound, is Dose.FC.LYZ.NS (log 2 fold change, basal lysozyme secretion) lower than -0.08? CS(=O)(=O)c1ccc(-c2cnc(N)c(C(=O)Nc3ccccc3)n2)cc1
y

----------
# System: ISC-enriched organoids
# Assay summary: Primary screen, 384-well 2.5-D organoid differentiation (ENR+CD, 6 days): basal lysozyme secretion (LYZ.NS)
# Format: cell-based, murine
# Run conditions: Dose 10.00 uM; primary screen, standard z score
Would you mind labelling by Z.LYZ.NS? At or over -0.08 is Satisfied, under is Not satisfied.

| Molecule | Label class |
| --- | --- |
| CC(C)c1ccc(NC(=O)Cn2cnc3c2c(=O)n(C)c(=O)n3C)cc1 | Not satisfied |

Check if Z.LYZ.NS >= -0.08 (inclusive). Item: CCc1cc(Nc2nccc(-c3c(-c4ccc(OC)c(C(=O)Nc5c(F)cccc5F)c4)nc4ccccn34)n2)c(OC)cc1N1CCC(N2CCN(S(C)(=O)=O)CC2)CC1 [GSK1904529A]
Not satisfied

Confirm if Z.LYZ.NS reported for the molecule Cc1ccc(NC(=O)c2ccc(CN3CCN(C)CC3)cc2)cc1Nc1nccc(-c2cccnc2)n1 [Imatinib (STI571)] is -0.08 or above.
Not satisfied

Test whether the molecule CC(C)CCNC(=O)[C@H](CC(C)C)NC(=O)[C@H]1O[C@@H]1C(=O)O [Loxistatin Acid (E-64C)] records Z.LYZ.NS of -0.08 or higher.
Satisfied

Determine whether this molecule has Z.LYZ.NS no lower than -0.08: O=C(Nc1ccccc1)N1CCN(c2nc(-c3ccccc3)ns2)CC1
Satisfied

Decide: Z.LYZ.NS of Cc1noc(-c2ccc(CSCCC(=O)O)cc2)c1NC(=O)OC(C)c1ccccc1Cl (stereo not shown) >= -0.08?
Not satisfied
